target or test system: T1, human IGF2^1-67 (mature insulin-like growth factor 2) (human, UniProt P01344 25-91, biotinylated (site not stated) where immobilised on the chip (Tables 1-4))
T1 construct: mature; also called mature IGF2; biotinylated IGF2
T1 sequence (P01344 25-91): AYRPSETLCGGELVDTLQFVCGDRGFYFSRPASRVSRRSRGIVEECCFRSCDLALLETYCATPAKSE
protocol: SPR kinetic, biotin-IGF2 on chip, pH 7.4
parameter: kon (M⁻¹ s⁻¹)

Consider the reported kon for these binders:
binder	kon [M⁻¹ s⁻¹]
domain 11^AB5 P1597H S1602H (receptor, See m5) MKSNEHDDCQVTNPSTGHLFDLSSLSGRAGFTAAYAKGWGVYMSICGENENCPPGVGACFGQTRISVGKANKRLRYVDQVLQLVYKDGSHCPSKHGLSYKSVISFVCRPEAGPTNRPMLISLDKQTCTLFFSWHTPLACEQATECSV	3.5e+06
IGF2R domain 11^AB3 (receptor, His6-tagged soluble domain 11; also called domain 11^E1544K, K1545S, L1547V; 1542YSKSGV1547) MKSNEHDDCQVTNPSTGHLFDLSSLSGRAGFTAAYSKSGVVYMSICGENENCPPGVGACFGQTRISVGKANKRLRYVDQVLQLVYKDGSPCPSKSGLSYKSVISFVCRPEAGPTNRPMLISLDKQTCTLFFSWHTPLACEQATECSV	2.76e+06
domain 11^AB3 P1597K (receptor, See m5) MKSNEHDDCQVTNPSTGHLFDLSSLSGRAGFTAAYSKSGVVYMSICGENENCPPGVGACFGQTRISVGKANKRLRYVDQVLQLVYKDGSKCPSKSGLSYKSVISFVCRPEAGPTNRPMLISLDKQTCTLFFSWHTPLACEQATECSV	1.05e+07
domain 11^AB3 Q1569R P1597K S1602H (receptor, See m5) MKSNEHDDCQVTNPSTGHLFDLSSLSGRAGFTAAYSKSGVVYMSICGENENCPPGVGACFGRTRISVGKANKRLRYVDQVLQLVYKDGSKCPSKHGLSYKSVISFVCRPEAGPTNRPMLISLDKQTCTLFFSWHTPLACEQATECSV	2.01e+07
domain 11^AB5 P1597A (receptor, See m5) MKSNEHDDCQVTNPSTGHLFDLSSLSGRAGFTAAYAKGWGVYMSICGENENCPPGVGACFGQTRISVGKANKRLRYVDQVLQLVYKDGSACPSKSGLSYKSVISFVCRPEAGPTNRPMLISLDKQTCTLFFSWHTPLACEQATECSV	1.9e+06
domain 11^AB5 P1597S (receptor, See m5) MKSNEHDDCQVTNPSTGHLFDLSSLSGRAGFTAAYAKGWGVYMSICGENENCPPGVGACFGQTRISVGKANKRLRYVDQVLQLVYKDGSSCPSKSGLSYKSVISFVCRPEAGPTNRPMLISLDKQTCTLFFSWHTPLACEQATECSV	5e+06
domain 11^AB5 P1597K S1602H (receptor, See m5) MKSNEHDDCQVTNPSTGHLFDLSSLSGRAGFTAAYAKGWGVYMSICGENENCPPGVGACFGQTRISVGKANKRLRYVDQVLQLVYKDGSKCPSKHGLSYKSVISFVCRPEAGPTNRPMLISLDKQTCTLFFSWHTPLACEQATECSV	2.09e+06
domain 11^AB5 Q1569R P1597H K1631W (receptor, See m5) MKSNEHDDCQVTNPSTGHLFDLSSLSGRAGFTAAYAKGWGVYMSICGENENCPPGVGACFGRTRISVGKANKRLRYVDQVLQLVYKDGSHCPSKSGLSYKSVISFVCRPEAGPTNRPMLISLDWQTCTLFFSWHTPLACEQATECSV	1.12e+07
domain 11^AB5 P1597L (receptor, See m5) MKSNEHDDCQVTNPSTGHLFDLSSLSGRAGFTAAYAKGWGVYMSICGENENCPPGVGACFGQTRISVGKANKRLRYVDQVLQLVYKDGSLCPSKSGLSYKSVISFVCRPEAGPTNRPMLISLDKQTCTLFFSWHTPLACEQATECSV	4.18e+06
domain 11^AB3 Q1569R P1597H (receptor, See m5) MKSNEHDDCQVTNPSTGHLFDLSSLSGRAGFTAAYSKSGVVYMSICGENENCPPGVGACFGRTRISVGKANKRLRYVDQVLQLVYKDGSHCPSKSGLSYKSVISFVCRPEAGPTNRPMLISLDKQTCTLFFSWHTPLACEQATECSV	1.89e+07

a. domain 11^AB5 P1597H (receptor, See m5) MKSNEHDDCQVTNPSTGHLFDLSSLSGRAGFTAAYAKGWGVYMSICGENENCPPGVGACFGQTRISVGKANKRLRYVDQVLQLVYKDGSHCPSKSGLSYKSVISFVCRPEAGPTNRPMLISLDKQTCTLFFSWHTPLACEQATECSV
b. domain 11^AB5 Q1569R P1597K (receptor, See m5) MKSNEHDDCQVTNPSTGHLFDLSSLSGRAGFTAAYAKGWGVYMSICGENENCPPGVGACFGRTRISVGKANKRLRYVDQVLQLVYKDGSKCPSKSGLSYKSVISFVCRPEAGPTNRPMLISLDKQTCTLFFSWHTPLACEQATECSV
Compare the recorded kon of a and b ; state which is larger. Lab log: write the label of the selected item as the result.
b
